The values you see were collected from patent US20230149408A1.

system: uninfected MT2 cells; test: Compound cytotoxicity, XTT-based colorimetric assay; format: cell-based; conditions: day 4, XTT
Value Type: CC50

The molecule Cn1nc(NS(C)(=O)=O)c2c(Cl)ccc(-n3c([C@H](Cc4cc(F)cc(F)c4)NC(=O)Cn4nc(C(F)F)c5c4C(F)(F)[C@@H]4C[C@H]54)nc4cc(-c5cccc(C(F)(F)F)n5)ccc4c3=O)c21 [Example 1] showed CC50 equal to > 20 µM

###

Provide the reported CC50 at 4 day of each item.
test: Compound cytotoxicity, XTT-based colorimetric assay; assay type: cell-based; settings: human; uninfected MT2 cells, day 4, XTT

The compound Cn1nc(NS(C)(=O)=O)c2c(Cl)ccc(-n3c([C@H](Cc4cc(F)cc(F)c4)NC(=O)Cn4nc(C(F)F)c5c4C(F)(F)[C@@H]4C[C@H]54)nc4cc(-c5nccc(C(F)F)n5)ccc4c3=O)c21 (single isomer, unassigned) showed CC50 at 4 day equal to > 20 µM

The compound Cn1nc(NS(C)(=O)=O)c2cccc(-n3c([C@H](Cc4cc(F)cc(F)c4)NC(=O)Cn4nc(C(F)F)c5c4C(F)(F)[C@@H]4C[C@H]54)nc4nc(OCCC(C)(F)F)ccc4c3=O)c21 (single isomer, unassigned) showed CC50 at 4 day equal to > 20 µM

The compound Cn1nc(NS(C)(=O)=O)c2c(Cl)ccc(-n3c([C@H](Cc4cc(F)cc(F)c4)NC(=O)Cn4nc(C(F)F)c5c4C(F)(F)[C@@H]4C[C@H]54)nc4nc(OCCC(F)(F)F)ccc4c3=O)c21 (atropisomer, axis not shown; (P)) showed CC50 at 4 day equal to > 0.5 µM
